Test system: HT-29
ASSAY_PROCEDURE: NCI tumour cell line growth inhibition, 48 h
Calls of active or inactive are those of the source. Rule as the data show it: active = GI50 up to about 1.1 µM and inactive = higher.
In this exercise, the only acceptable responses are active, inactive

Examples with answers:
Query: recorded result category for "CCOC(=O)c1[nH]c2c(OC)n[n+]([O-])cc2c1[N+](=O)[O-]" in this test inactive

"O=C(/C=C/c1ccc(O)c(O)c1)Oc1ccccc1" , same question. inactive

And "O=C(C=P(c1ccccc1)(c1ccccc1)c1ccccc1)c1ccccc1-c1ccccc1C(=O)C=P(c1ccccc1)(c1ccccc1)c1ccccc1" ? active

Consider next the compound COc1ccc(C(O)/C(=C/n2ccnc2)c2ccccc2)cc1OC (stereo not drawn) in the same way. inactive

Then what about the compound "CCOC(=O)c1cc(-n2nnc3ccccc32)cn1C" ? inactive

Next:
Outcome? "C1=C[C@]2(CCC13OCCO3)COc1ccccc12" inactive

// next record "CCC/C(Cl)=N/OC(NC(=O)OCC)(C(F)(F)F)C(F)(F)F" inactive

And "Cc1c2c(cc[n+]1C)O[B-](c1ccccc1)(c1ccccc1)O2" ? inactive

Cited source: ChEMBL document CHEMBL1201862
